Data origin: ChEMBL document CHEMBL2057072

For each record, write down the corresponding inhibition.
system tested: D(1A) dopamine receptor (Homo sapiens, UniProt P21728)
Sequence (P21728 whole entry): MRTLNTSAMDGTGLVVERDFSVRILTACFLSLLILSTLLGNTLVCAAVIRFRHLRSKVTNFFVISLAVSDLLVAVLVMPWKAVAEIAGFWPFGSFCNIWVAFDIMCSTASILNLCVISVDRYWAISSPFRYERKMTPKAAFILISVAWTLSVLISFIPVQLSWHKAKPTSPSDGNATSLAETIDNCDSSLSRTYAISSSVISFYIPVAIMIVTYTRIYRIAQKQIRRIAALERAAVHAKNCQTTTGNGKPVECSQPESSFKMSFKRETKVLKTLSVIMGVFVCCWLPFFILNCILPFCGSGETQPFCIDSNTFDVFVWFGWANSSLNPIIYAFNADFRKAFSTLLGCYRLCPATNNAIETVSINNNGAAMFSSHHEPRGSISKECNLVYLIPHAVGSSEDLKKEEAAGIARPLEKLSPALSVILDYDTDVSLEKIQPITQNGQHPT
assay text: Displacement of [3H]SCH23390 from human dopamine D1 receptor expressed in HEK293 cells at 10 uM
Format: cell-based
One number for each entry, in %.

Example entries and their recorded answers appear below.
COc1ccc2c(c1)C[C@H]1c3c(OC)cc(OC)c(CO)c3CCN1C2 ... 56
COc1ccc2c(c1)C[C@H]1c3cc(OC)c(OC)cc3CCN1C2 ... 81.9
COc1cc2c(c(OC)c1OC)[C@@H]1Cc3cc4c(cc3CN1CC2)OCO4 ... 43.4

inhibition reported for this molecule COc1ccc2c(c1)C[C@H]1c3cc(OCc4ccccc4)c(OC)cc3CCN1C2 : 86

###

system tested: D(1A) dopamine receptor (Homo sapiens, UniProt P21728)
assay text: Displacement of [3H]SCH23390 from human dopamine D1 receptor expressed in HEK293 cells
Type: cell-based
For each record, write down the corresponding IC50.
Give bare numbers, in nM.

Quick one: give me IC50 for each item below, same order please.
1. COc1cc2c(cc1O)[C@@H]1Cc3c(CO)c(OC)cc(OC)c3CN1CC2
2. COc1ccc2c(c1)C[C@H]1c3cc(O)c(OC)cc3CCN1C2

# output
1: 30.7; 2: 68.9

###

system tested: D(2) dopamine receptor (Homo sapiens, UniProt P14416)
Sequence (P14416 whole entry): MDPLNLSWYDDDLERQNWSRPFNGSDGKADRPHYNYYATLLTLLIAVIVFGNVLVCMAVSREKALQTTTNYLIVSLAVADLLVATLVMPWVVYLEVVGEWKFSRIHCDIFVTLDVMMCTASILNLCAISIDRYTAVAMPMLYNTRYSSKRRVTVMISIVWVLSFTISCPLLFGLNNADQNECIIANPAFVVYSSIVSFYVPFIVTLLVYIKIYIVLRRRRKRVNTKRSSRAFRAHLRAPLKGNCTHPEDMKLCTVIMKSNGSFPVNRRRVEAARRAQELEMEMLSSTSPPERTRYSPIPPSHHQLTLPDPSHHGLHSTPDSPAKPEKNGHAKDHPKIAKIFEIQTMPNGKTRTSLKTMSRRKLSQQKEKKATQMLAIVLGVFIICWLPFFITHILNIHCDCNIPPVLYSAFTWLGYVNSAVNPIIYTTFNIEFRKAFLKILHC
assay text: Displacement of [3H]Spiprone from human dopamine D2 receptor expressed in HEK293 cells at 10 uM
Type: cell-based
For each record, write down the corresponding inhibition.
One number for each entry, in %.

Quick one: give me inhibition for each item below, same order please.
1. COc1cc2c(cc1OC)C1Cc3cc(C)cc(C)c3CN1CC2 (racemic)
2. COc1cc2c(c(OC)c1)CN1CCc3cc(OC)c(O)c(OC)c3[C@@H]1C2
3. COc1ccc2c(c1)C[C@H]1c3cc(OCc4ccccc4)c(OC)cc3CCN1C2
4. COc1cc2c(c(OC)c1)CN1CCc3cc(OC)cc(OC)c3[C@@H]1C2
5. COc1cc(OC)c2c(c1CO)C[C@H]1c3c(cc(OC)c(OC)c3OC)CCN1C2

# output
77.4
58.8
36
81.9
47.2

###

For each record, write down the corresponding pIC50.
system tested: D(1A) dopamine receptor (Homo sapiens)
assay text: Antagonist activity at dopamine D1 receptor assessed as inhibition of [35S]GTPgammaS binding in cell-based assay
Type: functional
Answers are plain numbers, as −log10 of the molar value.

Example entries and their recorded answers appear below.
COc1cc2c(c(OC)c1)CN1CCc3cc(OC)c(O)cc3[C@@H]1C2 ... 5.86
COc1cc2c(c(OC)c1)CN1CCc3cc(OC)c(OC)c(OC)c3[C@@H]1C2 ... 4.93

// switching to the query molecule
pIC50 reported for this molecule COc1cc2c(c(OC)c1)CN1CCc3cc(OC)cc(OC)c3[C@@H]1C2 : 4.63

###

system tested: 5-hydroxytryptamine receptor 2A (Homo sapiens) (UniProt P28223)
Sequence (P28223 whole entry): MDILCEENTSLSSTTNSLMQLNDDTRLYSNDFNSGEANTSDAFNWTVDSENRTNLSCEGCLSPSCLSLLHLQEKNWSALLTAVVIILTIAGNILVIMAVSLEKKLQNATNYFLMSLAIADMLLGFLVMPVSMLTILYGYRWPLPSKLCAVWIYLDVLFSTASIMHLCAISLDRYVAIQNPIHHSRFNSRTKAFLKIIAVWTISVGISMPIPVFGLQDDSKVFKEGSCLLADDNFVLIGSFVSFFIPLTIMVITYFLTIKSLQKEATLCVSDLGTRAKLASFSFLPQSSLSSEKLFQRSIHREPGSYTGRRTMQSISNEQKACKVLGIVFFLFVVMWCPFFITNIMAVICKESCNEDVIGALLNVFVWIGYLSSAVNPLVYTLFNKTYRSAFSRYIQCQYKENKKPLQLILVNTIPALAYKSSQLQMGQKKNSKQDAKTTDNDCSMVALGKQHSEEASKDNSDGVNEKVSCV
assay text: Displacement of [3H]Ketanserin from human 5HT2A receptor expressed in HEK293 cells at 10 uM
Type: cell-based
Classification field: satisfied = inhibition at or over 30%; not satisfied = inhibition under 30%.

COc1cc2c(c(OC)c1)CN1CCc3cc(OC)cc(OC)c3[C@@H]1C2 ... not satisfied
COc1ccc(OC)c2c1C[C@H]1c3c(OC)cc(OC)c(CO)c3CCN1C2 ... not satisfied
COc1cc2c(cc1O)[C@@H]1Cc3cc(C)cc(C)c3CN1CC2 ... not satisfied
COc1cc2c(c(OC)c1)CN1CCc3cc(OC)c(O)c(OC)c3[C@@H]1C2 ... satisfied

Next:
# input Say whether COc1ccc2c(c1)C[C@H]1c3cc(O)c(OC)cc3CCN1C2 shows inhibition of 30% or more.
# output satisfied
